measure name: melting point

>  <compound>
CS(=O)(=O)c1cccc(-n2ccc(=O)c(-c3ccnn3-c3ccccc3)n2)c1

>  <measure name>
melting point

>  <test value>
199 to 200 °C

$$$$
>  <compound>
Cc1cccc(C)c1SC(CC(C)C)c1c(O)cc(-c2ccccc2)oc1=O (stereo not given)

>  <measure name>
melting point

>  <test value>
166 to 167 °C

$$$$
>  <compound>
Ic1cccc2cc3ccccc3cc12

>  <measure name>
melting point

>  <test value>
152 to 154 °C

$$$$

// Input: O=C1C(=O)c2ccccc2C2=C1SCC1(CCN(C(=O)c3cccc(Cl)c3)CC1)O2 . Output its melting point only.
155 to 158 °C

Report melting point, nothing else, for this compound: Cn1ccnc1COc1cccc(Nc2cc(-c3c[nH]nc3-c3ccccn3)ccn2)c1
120 °C

###

measure name: melting point

>  <compound>
O=C(Nc1ccc(Cl)cn1)c1cc(Cl)ccc1NCC1CCN(C2CCSC2)CC1 (stereo not given)

>  <test value>
178 to 181 °C

$$$$
>  <compound>
Cc1cn(C(c2ccccc2)c2ccc(Cl)c([N+](=O)[O-])c2)cn1 (stereo not given)

>  <test value>
105 °C

$$$$
>  <compound>
O=C(CCC12CCC(=O)N1C(=O)CC2)OCc1ccccc1Cl

>  <test value>
126 to 128 °C

$$$$
>  <compound>
O=CNNc1ccc(NC(=S)Nc2ccccc2)cc1

>  <test value>
188 °C

$$$$
>  <compound>
O=C1CCn2c(nc3ccccc32)N1

>  <test value>
> 260 °C

$$$$
>  <compound>
Nc1cc(I)c(I)cc1[N+](=O)[O-]

>  <test value>
196 to 197 °C

$$$$
>  <compound>
N#Cc1c(Br)c(Br)n(Cc2ccccc2)c1-c1ccc(C(F)(F)F)cc1

>  <test value>
145 to 147 °C

$$$$
>  <compound>
CCCCc1nn(-c2cc(NC(=O)OCCC)ccc2Cl)c(=O)n1Cc1ccc(-c2ccccc2S(=O)(=O)NC(=O)c2ccccc2Cl)cc1

>  <test value>
> 119 °C

$$$$
>  <compound>
O=C(O)CCc1ccc(C(=O)NCc2ccccn2)cc1

>  <test value>
83.8 °C

$$$$

Below: the item to evaluate.
Please report the measured melting point for Cc1c2c(c(C)c3c1OC(C)(CI)C3)N(C=O)C(C)(C)C2 (stereo not given)
124 to 126 °C

###

Here the recorded melting point is given for each entry.

Some solved entries appear below for comparison.
>  <compound>
Cn1cc(C(=O)NCCCN)c(Nc2ccc(I)cc2F)cc1=O

>  <melting point>
201 to 206 °C

$$$$
>  <compound>
O=C(Nc1cccc(F)c1)Nc1cnnc(Cl)c1

>  <melting point>
293 to 296 °C

$$$$
>  <compound>
COC(=O)C1=C(C)NC(C)=C(C(=O)OCCN2CCCC2=O)C1c1cccc([N+](=O)[O-])c1 (stereo not given)

>  <melting point>
112 to 114 °C

$$$$

Tell us which melting point value is on record for CCN(CC)C(=O)C(C)n1cc(C)c(-c2ccccc2)n1 (stereo not given)
55 to 57 °C

Look up melting point of NC(=NCC(F)(F)F)Nc1nc(CCCCNc2ncccn2)cs1 and report it.
173 to 175 °C

Report melting point for N#Cc1ccc(OCCCCCOc2ccc(-c3cc4cc(C#N)ccc4o3)cc2)cc1
163 to 166 °C

###

Measured melting point accompanies every entry in the list below.

>  <molecule>
O=C(O)c1ccc(-c2csc(-c3ccncc3)n2)cc1

>  <test value>
> 300 °C

$$$$
>  <molecule>
N=C1CN(c2ccccc2)C(=N)O1

>  <test value>
117 to 119 °C

$$$$
>  <molecule>
CC1(CS(=O)(=O)c2ccccc2)COC2(CCC(=O)CC2)OO1 (stereo not given)

>  <test value>
96 °C

$$$$
>  <molecule>
COC(=O)C(C)c1ccc2c(=O)c3ccccc3ccc2c1 (stereo not given)

>  <test value>
37 to 39 °C

$$$$
>  <molecule>
O=C(O)c1cc(-n2c(-c3ccc(Cl)c(Cl)c3)cc3c2CCCC3)ccc1O

>  <test value>
210 to 211 °C

$$$$

Annotate the molecule CC1(C)OC(=O)Nc2ccc(-c3cc(F)cc(-c4ccsc4)c3)cc21 with its measured melting point.
200 to 203 °C

Tell me melting point reported for O=C(Nc1ccc(C(=O)N2Cc3ccccc3Cc3ccccc32)cc1)c1ccccc1Cl
110 to 115 °C

Recall and state the measured melting point for COc1ccc(-c2nc(-c3cccs3)c[nH]2)cc1Br .
84 to 87 °C

Please give the documented melting point of O=C1Nc2cc(Cl)cc(Cl)c2C1c1cc(Cl)ccc1O (stereo not given)
238 to 240 °C

Could you please provide reported melting point for O=[N+]([O-])c1cc(-c2ccncc2)ccc1Cl ? Thanks!
110 to 111 °C

###

measure name: melting point

>  <smi>
Oc1ccc2c(c1)COc1c-2cc2ccc(O)cc2c1-c1ccsc1

>  <melting point>
159 to 161 °C

$$$$
>  <smi>
CNC(=O)c1c(NC)ncn1Cc1ccccc1

>  <melting point>
113 to 114 °C

$$$$
>  <smi>
C=C(C)C(=O)OCCCCOc1ccc(C(=O)Cl)cc1

>  <melting point>
30 to 31 °C

$$$$
>  <smi>
O=C1C(Cl)=C(c2ccccc2)C(=O)N1Nc1ccc(F)cc1

>  <melting point>
115 to 117 °C

$$$$

Attention now turns to another entry.
Respond only with melting point recorded for CCCCNC(=O)Nc1ccc(OCC2CC2)cc1C(=O)NCC1CCN(C(c2ccccc2)c2ccccc2)CC1
190 to 192 °C

###

measure name: melting point

As a guide, the following entries are already answered.
>  <molecule>
NC(=O)COc1ccc(CCN2CCC(Nc3nc4ccccc4n3Cc3ccc(F)cc3)CC2)cc1

>  <melting point>
180 °C

$$$$
>  <molecule>
CCCC(=O)c1cnc2c(OCCCN3CCCC3)cccc2c1Nc1ccccc1C

>  <melting point>
101 to 103 °C

$$$$
>  <molecule>
Cc1cc(Br)c(C)cc1N

>  <melting point>
92 to 93 °C

$$$$
>  <molecule>
O=[N+]([O-])c1cccc(NN=C(c2ccc(O)cc2)c2ccc(O)cc2)c1

>  <melting point>
160 to 162 °C

$$$$
>  <molecule>
COP(=O)(Cc1cc(C)c(CP(=O)(OC)OC)cc1C)OC

>  <melting point>
121 to 123 °C

$$$$
>  <molecule>
O=C(O)c1cc(OCC(=O)c2ccccc2)cc(C(F)(F)F)c1

>  <melting point>
180 to 182 °C

$$$$

Fill in melting point for record COc1ccc(CCNC(=O)Cc2ccc(OC)c(OC)c2)cc1OC
125 °C

Consider the molecule CCOCc1nc2c(c(C)c(C)n3nnnc23)n1CCNC(=O)Nc1ccccc1 and give its recorded melting point.
> 250 °C

Look up melting point of O=C(O)C1=C2OCOc3cccc1c32 and report it.
125 °C

Provide melting point value for the following molecule: CNc1nnc(-c2cccc(F)c2)c(=O)n1NC
173 to 174 °C

For the molecule COc1cc(C(=O)N2CCC(CCN3CCC(C(=O)c4nc5ccccc5n4Cc4ccc(F)cc4)CC3)(c3ccc(Cl)c(Cl)c3)C2)cc(OC)c1OC (stereo not given) , give its reported melting point.
87 to 90 °C

Find the measured melting point of CCCc1nc(CO)c(C)[nH]1 and report it.
134 to 136 °C

###

Listing: melting point of selected molecules

Use the examples below as a reference point.
>  <molecule>
CCc1ccc(Nc2c(-c3nnc(NCCNC)o3)ccc(F)c2F)c(F)c1

>  <measure name>
melting point

>  <test value>
154 to 157 °C

$$$$
>  <molecule>
COc1cc(COc2nn(Cc3ccccc3)cc2/C=C/C(=O)O)ccc1OCc1nc(-c2ccco2)oc1C

>  <measure name>
melting point

>  <test value>
175 to 176 °C

$$$$
>  <molecule>
COc1ncc(Nc2nc(N3CCOCC3)nc(-n3c(C(F)F)nc4c(OC)cccc43)n2)cn1

>  <measure name>
melting point

>  <test value>
255 to 258 °C

$$$$
>  <molecule>
CC(C)NC(=O)Oc1ccccc1

>  <measure name>
melting point

>  <test value>
81 to 82 °C

$$$$

Could you please provide reported melting point for O=C(NCCCc1ccncc1)N(CCC12CC3CC(CC(C3)C1)C2)Cc1ccccc1 ? Thanks!
130 to 135 °C

Return the recorded melting point value; entry: Cc1ccc(S(=O)(=O)C2SC(=O)N(C(c3ccccc3)(c3ccccc3)c3ccccc3)C2=O)cc1 (centres undefined)
105 to 110 °C

###

measure name: melting point

// worked examples, melting point included
>  <molecule>
CCOC(=O)C(Cc1ccc(OC)c(OC)c1)NC(=O)c1ccc(OC(C)C)cc1 (stereo unspecified)

>  <measure name>
melting point

>  <test value>
126 to 128 °C

$$$$
>  <molecule>
CCCCCCCCCCCc1nnc2n1-c1ccccc1C(c1ccccc1)=NC2

>  <measure name>
melting point

>  <test value>
76 to 77 °C

$$$$
>  <molecule>
C=CCOc1cc(-c2cc(=O)c3c(O)cc(O)cc3o2)ccc1OC

>  <measure name>
melting point

>  <test value>
219 °C

$$$$

// switching to the query molecule
Annotate the molecule OP(O)C(NC(c1ccccc1)c1ccccc1)c1ccc2c(c1)OCO2 (stereo unspecified) with its measured melting point.
194 to 195 °C

Attribution: a melting point compilation (Tetko et al.; mined from patent text by program, amines drawn as free bases though some values may be those of a salt)
